tested on: NCI-H322M lung; experiment: NCI-60 one-dose screen, 48 h; details: 10 µM unless noted
This is part of a sample that, as a whole, favours compounds with a hit. Of some 83,000 tested, about 20% had one in any assay. Active and inactive are the calls of the source. The calls were made as follows: active = growth percent below 10; inactive = the rest.
Respond using exactly one of the listed classes: TRUE (active), FALSE (inactive)

{"COMPOUND": "Nc1nc(Br)nc2c1ncn2C1CC(O)C(CO)O1 (stereo not drawn)", "LABEL": "FALSE"}
{"COMPOUND": "CCN(CC)C(=O)CCCCCn1c2ccccc2c2c3c(c4c5ccccc5[nH]c4c21)C(=O)N(O)C3=O", "LABEL": "FALSE"}
{"COMPOUND": "COc1cc2nc(Cl)nc(Nc3cccc(C(=O)/C=C/c4ccccc4)c3)c2cc1OC", "LABEL": "FALSE"}

**Q:** What was the test verdict on COc1cc2ncnc(Nc3ccc(Oc4ccnc(C)c4)c(C)c3)c2cc1NC(=O)CC1CCSS1 (stereo not drawn) ?
**A:** TRUE

**Q:** What was the test verdict on CC[C@]12C=CCN3CC[C@@]4(c5cc([C@H]6CCC(=O)N6)c(OC)cc5N(C)[C@H]4[C@@](O)(C(=O)OC)[C@@H]1OC(C)=O)[C@@H]32 ?
**A:** FALSE

**Q:** What was the test verdict on Cc1cccc2c1NC(=O)[C@@]21[C@H](C(=O)c2ccccc2)[C@]2(C(=O)Nc3ccccc32)[C@H]2CCCN21 ?
**A:** FALSE

**Q:** What was the test verdict on O=C1C(Cl)=C(Nc2ccc(S(=O)(=O)c3ccc(NC4=C(Cl)C(=O)c5ccccc5C4=O)cc3)cc2)C(=O)c2ccccc21 ?
**A:** FALSE

**Q:** What was the test verdict on Nc1nc2c(c(=O)[nH]1)C(c1ccc3c(c1)OCO3)C=C(C(=O)O)N2 (stereo not drawn) ?
**A:** FALSE

====

test system: UACC-62 melanoma; assay: NCI-60 one-dose screen, 48 h (100 = growth as untreated, 0 = no growth, -100 = all killed); settings: 10 µM unless noted
About 83,000 compounds went through this panel and 20% of them were active in at least one assay; those are over-represented in the sample as a whole.
Label condition met when growth is strictly below 20%; at or above that, label condition not met.

{"MOLECULE": "CN(C)CCCC1(c2ccc(F)cc2)OCc2cc(-c3ccc(C(F)(F)F)nc3)ccc21 (centres undefined)", "LABEL": "condition not met"}

**Q:** # TODO verify growth < 20% strictly for this molecule: CN1CCN(CC#CCn2c3c(c4ccccc42)C[C@]2(C)[C@H]4CC[C@@H]5[C@H]6[C@H]7OC(=O)[C@@]6(CCC7(C)C)CC[C@@]5(C)[C@]4(C)CC[C@H]2C3(C)C)CC1
**A:** condition not met

====

Parameter: growth. Scope: all listed entries.
test system: RPMI-8226 leukemia; test: NCI-60 one-dose screen, 48 h (100 = growth as untreated, 0 = no growth, -100 = all killed); details: 10 µM unless noted
Compounds without any hit were thinned out: in the full panel of roughly 83,000, 20% have a hit. Calls of active or inactive are those of the source. Rule for the calls: active = growth percent below 10; inactive = the rest.

{"MOLECULE": "NS(=O)(=O)c1ccc(CCNC(=O)/C=C/c2ccc(Cl)cc2)cc1", "growth": "98.3% (inactive)"}

**Q:** Would you kindly share the measured growth for CC/C=C\C[C@H]1CC=C2C(=O)C=C[C@@H]2CC=CCCCC(=O)O[C@@H](CCCCC)CC=C2C(=O)C=C[C@@H]2CC=CCCCC(=O)O[C@@H](CCCCC)CC=C2C(=O)C=C[C@@H]2CC=CCCCC(=O)O[C@@H](CCCCC)CC=C2C(=O)C=C[C@@H]2CC=CCCCC(=O)O1 ?
**A:** 0.23% [7.9 µM] (active)

**Q:** Would you kindly share the measured growth for COc1ccc(/C=C(\C#N)c2cc3ccccc3n2C(C)=O)cc1 ?
**A:** 83.2% (inactive)

**Q:** Would you kindly share the measured growth for Nc1c2c(nc3ccc(Cl)cc13)CC(c1ccccc1)CC2=O (stereo not drawn) ?
**A:** 25.8% (inactive)

**Q:** Would you kindly share the measured growth for COc1cc(C(=O)/C=C/c2cc(-c3ccc4c(c3)OCO4)n[nH]2)cc(OC)c1OC ?
**A:** -42.4% (active)

**Q:** Would you kindly share the measured growth for C[C@H]1[C@@H]2[C@H]3CC[C@@H]4[C@@]5(C)Cc6c([nH]c7ccccc67)C(C)(C)[C@@H]5CC[C@@]4(C)[C@]3(C)CC[C@]23CO[C@]1(C)[C@@H](C(=O)/C=C/c1ccccn1)C3 ?
**A:** 62.5% (inactive)

**Q:** Would you kindly share the measured growth for Cc1cc(N2CCN(C)CC2)nc(N(CCNc2ccnc3cc(Cl)ccc23)Cc2ccco2)n1 ?
**A:** -3.89% (active)

**Q:** Would you kindly share the measured growth for Cn1cc(-c2csc(-c3cn(CCCN4CCCCC4)c4ccc(Br)cc34)n2)c2cccnc21 ?
**A:** -35.3% (active)
